Entry source: paper PMC4409382

ASSAYED_SYSTEM: T1, 14-3-3ζ (human, UniProt P63104 1-245)
T1 construct: N-terminal glycine retained after TEV cleavage of the His tag; 14-3-3 zeta, human, ORF purchased from GeneCopoeia, full-length construct; Dimer (~56 kDa); the stoichiometry n counts on the 14-3-3 monomer; also called full-length 14-3-3ζ; source: E. coli BL21 (DE3) pLysS, purified (Ni Sepharose, TEV cleavage, second Ni Sepharose pass); not shown: His tag, N-terminal, cleaved
T1 sequence: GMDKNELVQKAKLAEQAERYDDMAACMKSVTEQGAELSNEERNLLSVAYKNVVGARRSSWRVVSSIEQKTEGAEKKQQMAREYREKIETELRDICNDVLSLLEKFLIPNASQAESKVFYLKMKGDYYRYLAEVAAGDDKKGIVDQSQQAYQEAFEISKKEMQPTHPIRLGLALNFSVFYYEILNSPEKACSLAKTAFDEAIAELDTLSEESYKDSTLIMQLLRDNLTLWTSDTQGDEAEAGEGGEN
TEST_SUMMARY: ITC; duplicate set of titrations; 5 uL aliquots of ~1-2 mM peptide titrated into the 1.4 mL cell with ~100-200 uM 14-3-3ζ; 25 °C; 50 mM sodium phosphate, 100 mM NaCl, 1 mM DTT, pH 6.8; one-site model; n per 14-3-3 monomer
REPORTED_CONDITIONS: both partners purified
Square brackets hold non-standard residues; d marks the D form. Ends that are not written are not given here. pS = N[C@@H](COP(=O)(O)O)C(=O)O
ASSAY_METRIC: stoichiometry N

binder="KTPPRKSA[pS]LS-NH2 (N-terminus assumed; SMILES CC(C)C[C@H](NC(=O)[C@H](COP(=O)(O)O)NC(=O)[C@H](C)NC(=O)[C@H](CO)NC(=O)[C@H](CCCCN)NC(=O)[C@H](CCCNC(=N)N)NC(=O)[C@@H]1CCCN1C(=O)[C@@H]1CCCN1C(=O)[C@@H](NC(=O)[C@@H](N)CCCCN)[C@@H](C)O)C(=O)N[C@@H](CO)C(N)=O, Chibby (Cby), human, residues 12-22; source: synthetic peptide, bought: TUFTS University Core Facility) [pCby 11-mer]" assay_metric="stoichiometry N" observed_result=0.96
binder="KTPPRKSA[pS]LPNLHSLDR (Chibby (Cby), human, residues 12-29 with S22P; also called Cby 18-mer S22P; source: synthetic peptide, bought: TUFTS University Core Facility) [pCby S22P 18-mer]" assay_metric="stoichiometry N" observed_result=1.08
binder="KTPPRKSA[pS]LSNLHSLDR (Chibby (Cby), human, residues 12-29; also called Cby 18-mer WT; source: synthetic peptide, bought: GenScript USA Inc) [pCby 18-mer]" assay_metric="stoichiometry N" observed_result=0.94
binder="Ac-RKSA[pS]LS-NH2 (SMILES CC(=O)N[C@@H](CCCNC(=N)N)C(=O)N[C@@H](CCCCN)C(=O)N[C@@H](CO)C(=O)N[C@@H](C)C(=O)N[C@@H](COP(=O)(O)O)C(=O)N[C@@H](CC(C)C)C(=O)N[C@@H](CO)C(N)=O, Chibby (Cby), human, residues 16-22; also called 16RKSA(pS)LS22; source: synthetic peptide, bought: TUFTS University Core Facility) [pCby 7-mer]" assay_metric="stoichiometry N" observed_result=0.94
